target_or_test_system: Mcl-1 (Homo sapiens (Human))
test_protocol: Fluorescence polarization anisotropy (FPA) competition assay, FITC-Bak or FITC-Bim BH3 peptide
Assay type: binding
experimental_parameters: read-out: Ki for Inhibition of Mcl-1 by FPA assay
readout_label: Ki (nM)

1) Cc1cc(N2C[C@@H](C)n3c(c(CCCOc4cc(C)c(Cl)c(C)c4)c4ccc(Cl)c(-c5c(C)ncnc5C)c43)C2=O)c2c(c1)cc(C(N)=O)n2C = 6.5
2) Cc1cc(OCCCc2c3n(c4c(-c5c(C)nn(CC6CCN(C)CC6)c5C)c(Cl)ccc24)[C@H](C)CN(c2cn(C)c4c(C)cc(C(=O)O)cc24)C3=O)cc(C)c1Cl = 2.8

---

Test system: H929 human cancer cell lines
test_protocol: Cellular viability / proliferation (Cell TiterGlo, 72 h)
Assay type: cell-based
experimental_parameters: Homo sapiens, NCI-H929, 72 h, read-out: GI50 on cellular proliferation of H929 human cancer cell lines, H929 cells, 72 h, Cell TiterGlo, 10% FBS
readout_label: GI50 (µM)

1) Cc1cc(OCCCc2c3n(c4c(-c5c(C)nn(C)c5C)c(Cl)ccc24)[C@H](C)CN(c2cccc4cc(C(=O)O)n(CC5COC5)c24)C3=O)cc(C)c1Cl [Example 383] = 1.5
2) Cc1cc(N2C[C@@H](C)n3c(c(CCCOc4cc(C)c(Cl)c(C)c4)c4ccc(Cl)c(-c5c(C)nn(C)c5C)c43)C2=O)c2ncc(C(=O)O)cc2c1 [Example 658] = 0.25
3) Cc1cc(OCCCc2c3n(c4c(-c5c(C)ncnc5C)c(Cl)ccc24)CCCN(c2cn(C)c4ccc(C(=O)O)cc24)C3=O)cc(C)c1Cl [Example 156] = 0.26

---

target_or_test_system: UniProt:Q07820
test_protocol: TR-FRET binding assay, FITC-Bak peptide and MBP-tagged Mcl-1
experimental_parameters: read-out: Ki for Inhibition of Mcl-1 by TR-FRET assay
Returns: string. Value is criterion met if measured Ki is below 0.5 nM, and criterion not met if it is greater than or equal to it.

1. Cc1cc(OCCCc2c3n(c4c(-c5c(C)cc(O)cc5C)c(Cl)ccc24)[C@H](C)CNC3=O)cc(C)c1Cl [Example 488] = criterion not met
2. CCN(C)c1cc(N2C[C@@H](C)n3c(c(CCCOc4cc(C)c(Cl)c(C)c4)c4ccc(Cl)c(-c5c(C)nn(C)c5C)c43)C2=O)c2c(c1)cc(C(=O)O)n2C [Example 680] = criterion met
3. COCc1cccn2nc(-c3ccc4c(c3)c(N3C[C@@H](C)n5c(c(CCCOc6cc(C)c(Cl)c(C)c6)c6ccc(Cl)c(-c7c(C)nn(C)c7C)c65)C3=O)cn4C)nc12 [Example 695] = criterion not met
4. Cc1cc(OCCCc2c3n(c4c(-c5c(C)ncnc5C)c(Cl)ccc24)[C@H](C)CN(c2cn(C)c4cnc(C(=O)O)cc24)C3=O)cc(C)c1Cl [Example 640] = criterion met
5. Cc1cc(N2C[C@@H](C)n3c(c(CCCOc4cc(C)c(Cl)c(C)c4)c4ccc(Cl)c(-c5c(C)nn(C)c5C)c43)C2=O)c2c(c1)cc(C(=O)O)n2Cc1cc(N2CCNCC2)ccn1 [Example 553] = criterion met
6. COCCn1c(C(=O)O)cc2cc(C)cc(N3C[C@@H](C)n4c(c(CCCOc5cc(C)c(Cl)c(C)c5)c5ccc(Cl)c(-c6c(C)nc(CN7CCOCC7)nc6C)c54)C3=O)c21 [Example 717] = criterion met
7. COCCn1cnc(-c2ccc3c(c2)c(N2C[C@@H](C)n4c(c(CCCOc5cc(C)c(Cl)c(C)c5)c5ccc(Cl)c(-c6c(C)nc(CN7CCN(C)C(=O)C7)nc6C)c54)C2=O)cn3CCN2CCOCC2)n1 [Example 722] = criterion not met
8. COCCn1c(C(=O)O)cc2cc(OC)cc(N3C[C@@H](C)n4c(c(CCCOc5cc(C)c(Cl)c(C)c5)c5ccc(Cl)c(-c6c(C)nn(C)c6C)c54)C3=O)c21 [Example 665] = criterion met
9. COc1ccc(N2C[C@@H](C)n3c(c(CCCOc4cc(C)c(Cl)c(C)c4)c4ccc(Cl)c(-c5c(C)ncnc5C)c43)C2=O)c2c1cc(C(=O)O)n2Cc1cccc(C)n1 [Example 477] = criterion met
10. Cc1cc(OCCCc2c3n(c4c(-c5c(C)nn(C)c5C)c(Cl)ccc24)[C@H](C)CN(c2cn(Cc4cccnc4)c4ccc(C(=O)O)cc24)C3=O)cc(C)c1Cl [Example 563] = criterion met

---

Test system: H929 human cancer cell lines
test_protocol: Cellular viability / proliferation (Cell TiterGlo, 72 h)
Assay type: cell-based
experimental_parameters: Homo sapiens, NCI-H929, 72 h, read-out: GI50 on cellular proliferation of H929 human cancer cell lines, H929 cells, 72 h, Cell TiterGlo, 10% FBS
readout_label: GI50 (nM)

1. COCCn1cc(N2C[C@@H](C)n3c(c(CCCOc4cc(C)c(Cl)c(C)c4)c4ccc(Cl)c(-c5c(C)nn(C)c5C)c43)C2=O)c2cc(-c3ncn(CC4CC4)n3)ccc21 = 1100
2. COCCOc1cc(N2C[C@@H](C)n3c(c(CCCOc4cc(C)c(Cl)c(C)c4)c4ccc(Cl)c(-c5c(C)nn(C)c5C)c43)C2=O)c2c(c1)c(C(=O)O)cn2C = 340
3. Cc1cc(OCCCc2c3n(c4c(-c5c(C)nn(C)c5C)c(Cl)ccc24)[C@H](C)CN(c2c[nH]c4ccc(-c5ncn(C)n5)cc24)C3=O)cc(C)c1Cl = 360
4. CC(=O)N1CCN(C(=O)c2cc(N3C[C@@H](C)n4c(c(CCCOc5cc(C)c(Cl)c(C)c5)c5ccc(Cl)c(-c6c(C)nn(C)c6C)c54)C3=O)c3c(c2)cc(C(=O)O)n3C)CC1 = 560
5. Cc1cc(OCCCc2c3n(c4c(-c5c(C)nn(C)c5C)c(Cl)ccc24)[C@H](C)CN(c2cc(C(=O)O)c4cnn(CCN5CCOCC5)c4c2)C3=O)cc(C)c1Cl = 810

---

target_or_test_system: Mcl-1 (Homo sapiens (Human), UniProt Q07820)
Sequence (Q07820 172-327): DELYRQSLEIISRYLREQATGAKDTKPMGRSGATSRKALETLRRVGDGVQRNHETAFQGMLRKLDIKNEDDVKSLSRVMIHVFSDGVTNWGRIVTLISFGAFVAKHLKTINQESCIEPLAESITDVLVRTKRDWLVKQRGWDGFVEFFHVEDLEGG
test_protocol: TR-FRET binding assay, FITC-Bak peptide and MBP-tagged Mcl-1
experimental_parameters: read-out: Ki for Inhibition of Mcl-1 by TR-FRET assay
Threshold 0.9 nM: Ki strictly smaller gives Condition met, otherwise Condition not met.

1) COCCn1cc(N2C[C@@H](C)n3c(c(CCCOc4cc(C)c(Cl)c(C)c4)c4ccc(Cl)c(-c5c(C)nn(C)c5C)c43)C2=O)c2cc(-c3ncn(CC4COC4)n3)ccc21 [Example 581] = Condition not met
2) Cc1cc(OCCCc2c3n(c4c(-c5c(C)nn(C)c5C)c(Cl)ccc24)[C@H](C)CN(c2cc(CCN4CCOCC4)cc4cc(C(=O)O)n(C)c24)C3=O)cc(C)c1Cl [Example 715] = Condition met
3) Cc1cc(OCCCc2c3n(c4c(-c5c(C)nn(C)c5C)c(Cl)ccc24)[C@H](C)CN(c2cc(NC(=O)CN4CCCCC4)cc4c(C(=O)O)cn(C)c24)C3=O)cc(C)c1Cl [Example 533] = Condition met
4) COCCn1c(C(=O)O)cc2c(OC)ccc(N3C[C@@H](C)n4c(c(CCCOc5cc(C)c(Cl)c(C)c5)c5ccc(Cl)c(-c6c(C)ncnc6C)c54)C3=O)c21 [Example 493] = Condition met
5) COc1cc(N2C[C@@H](C)n3c(c(CCCOc4cc(C)c(Cl)c(C)c4)c4ccc(Cl)c(-c5c(C)ncnc5C)c43)C2=O)c2c(c1)cc(C(=O)O)n2C [Example 535] = Condition met
6) Cc1nnn(-c2ccc3c(n2)c(N2C[C@@H](C)n4c(c(CCCOc5cc(C)c(Cl)c(C)c5)c5ccc(Cl)c(-c6c(C)nn(C)c6C)c54)C2=O)cn3C)n1 [Example 684] = Condition met
7) Cc1cc(N2C[C@@H](C)n3c(c(CCCOc4cc(C)c(Cl)c(C)c4)c4ccc(Cl)c(-c5c(C)nn(C)c5C)c43)C2=O)c2c(c1)cc(C(=O)O)n2Cc1cc(C#N)ccn1 [Example 556] = Condition met
8) Cc1cc(OCCCc2c3n(c4c(-c5c(C)nn(C)c5C)c(Cl)ccc24)[C@H](C)CN(c2cn(C)c4ccc(-n5ccnn5)nc24)C3=O)cc(C)c1Cl [Example 659] = Condition not met
9) COCCn1c(C(=O)O)cc2cc(C)cc(N3C[C@@H](C)n4c(c(CCCOc5cc(C)c(Cl)c(C)c5)c5ccc(Cl)c(-c6c(C)n[nH]c6C)c54)C3=O)c21 [Example 718] = Condition met
10) Cc1cc(OCCCc2c3n(c4c(-c5c(C)nn(C)c5C)c(Cl)ccc24)[C@H](C)CN(c2cn(C)c4ccc(-n5nccn5)cc24)C3=O)cc(C)c1Cl [Example 662] = Condition not met
11) Cc1cc(OCCCc2c3n(c4c(-c5c(C)nn(C)c5C)c(Cl)ccc24)[C@H](C)CN(c2cc(OC(F)(F)F)cc4cc(C(=O)O)n(C)c24)C3=O)cc(C)c1Cl [Example 479] = Condition not met
12) Cc1cc(OCCCc2c3n(c4c(-c5c(C)nn(C)c5C)c(Cl)ccc24)[C@H](C)CN(c2cn(CCCl)c4ccc(-c5ncn(C)n5)cc24)C3=O)cc(C)c1Cl [Example 529] = Condition met
13) Cc1cc(OCCCc2c3n(c4c(-c5c(C)nc(CN6CCN(C)CC6)nc5C)c(Cl)ccc24)[C@H](C)CN(c2cn(CCN(C)C)c4ccc(C(=O)O)cc24)C3=O)cc(C)c1Cl [Example 580] = Condition met
14) Cc1cc(OCCCc2c3n(c4c(-c5c(C)nn(C)c5C)c(Cl)ccc24)[C@H](C)CN(c2cccc4c(C(=O)O)ccnc24)C3=O)cc(C)c1Cl [Example 661] = Condition met
15) Cc1cc(OCCCc2c3n(c4c(-c5c(C)nn(C)c5C)c(Cl)ccc24)[C@H](C)CN(c2cc(CN4CCC(Oc5ccc(Cl)cc5)CC4)cc4c(C(=O)O)cn(C)c24)C3=O)cc(C)c1Cl [Example 547] = Condition not met
16) COCCOc1cc(N2C[C@@H](C)n3c(c(CCCOc4cc(C)c(Cl)c(C)c4)c4ccc(Cl)c(-c5c(C)n[nH]c5C)c43)C2=O)c2c(c1)cc(C(=O)O)n2C [Example 716] = Condition met
17) Cc1cc(OCCCc2c3n(c4c(-c5c(C)nn(C)c5C)c(Cl)ccc24)[C@H](C)CN(c2cn(C)c4ccc(-n5ccnn5)cc24)C3=O)cc(C)c1Cl [Example 668] = Condition not met
18) Cc1cc(OCCCc2c3n(c4c(-c5c(C)nn(C)c5C)c(Cl)ccc24)[C@H](C)CN(c2cn(C)c4ccc(-c5nc6ccccn6n5)cc24)C3=O)cc(C)c1Cl [Example 648] = Condition met
19) COCCn1cc(C(=O)O)c2c(OC)ccc(N3C[C@@H](C)n4c(c(CCCOc5cc(C)c(Cl)c(C)c5)c5ccc(Cl)c(-c6c(C)nn(C)c6C)c54)C3=O)c21 [Example 625] = Condition met
20) Cc1cc(OCCCc2c3n(c4c(-c5c(C)nn(C)c5C)c(Cl)ccc24)[C@H](C)CN(c2cc(Oc4ccccn4)cc4cc(C(=O)O)n(C)c24)C3=O)cc(C)c1Cl [Example 522] = Condition met
21) Cc1cc(OCCCc2c3n(c4c(-c5c(C)nn(C)c5C)c(Cl)ccc24)[C@H](C)CN(c2cn(CC(=O)N4CCN(C)CC4)c4ccc(-c5ncn(C)n5)cc24)C3=O)cc(C)c1Cl [Example 546] = Condition met
